test target: Albumin (Bos taurus) (UniProt P02769)
Sequence (P02769 whole entry, looked up): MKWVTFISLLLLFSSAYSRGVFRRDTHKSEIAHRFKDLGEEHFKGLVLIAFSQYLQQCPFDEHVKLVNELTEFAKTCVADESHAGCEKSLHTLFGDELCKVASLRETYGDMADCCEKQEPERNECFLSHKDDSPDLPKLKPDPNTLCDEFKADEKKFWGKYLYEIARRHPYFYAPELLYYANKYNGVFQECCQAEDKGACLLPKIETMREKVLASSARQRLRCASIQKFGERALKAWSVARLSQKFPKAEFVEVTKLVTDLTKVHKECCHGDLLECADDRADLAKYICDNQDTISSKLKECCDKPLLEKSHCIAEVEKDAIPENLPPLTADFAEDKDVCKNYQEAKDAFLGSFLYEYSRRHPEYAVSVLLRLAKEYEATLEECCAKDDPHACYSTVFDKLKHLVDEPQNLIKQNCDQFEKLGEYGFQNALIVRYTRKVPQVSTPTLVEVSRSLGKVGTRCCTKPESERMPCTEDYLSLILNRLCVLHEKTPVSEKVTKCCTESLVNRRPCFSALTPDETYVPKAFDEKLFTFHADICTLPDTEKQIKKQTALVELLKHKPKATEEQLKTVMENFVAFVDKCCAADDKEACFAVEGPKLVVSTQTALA
assay notes: bovine serum albumin binders on microarray, profiling panel, artefact control for SMM control protein annotation, biochemical, small-molecule microarray, Alexa647 label, 635/667 nm fluorescence (AID 1118);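 further: score merges 667 nm emission intensity and signal-to-noise per printed compound spot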
settings: BSA-A647 binding, fluorescence 635 nm, higher = more signal
measured attribute: composite z-score
Respond with the number and no other words.

{"columns": ["compound", "composite z-score"],
 "data": [
  ["Cc1ccc(S(=O)(=O)N[C@H]2COC(=O)CC=C[C@H](C)COC(=O)N[C@@H](C)C(=O)CC=C[C@@H]2C)cc1", -0.0363]
]}

# composite z-score (compound: COC(=O)[C@@]1(Cc2ccccc2)[C@H]2c3cc(C(=O)N4CCCC4)n(CCN4CNCC4=O)c3C[C@H]2CN1C(=O)c1ccccc1 ) is 0.963

# composite z-score (compound: C=CCC(OC(C)=O)[C@@H]1[C@@H](N(Cc2cc3ccccc3o2)C(=O)c2ccc(C)cc2)c2cc(OCCCO)ccc2N1C(=O)c1ccc2ccccc2n1 (stereo partly drawn) ) is 0.659

# composite z-score (compound: Cc1ccc(N2C(=O)c3ccccc3[C@@H](C(=O)NCc3ccccc3)[C@@H]2c2ccc(CO)cc2)nc1 ) is -1.29

# composite z-score (compound: CO[C@@H]1COC(=O)CC=C[C@@H](C)[C@H](OC)COC(=O)CC=C[C@H]1C ) is -0.978

# composite z-score (compound: Cc1ccc(N2C(=O)c3ccccc3[C@@H](C(=O)NCC(F)(F)F)[C@@H]2c2ccc(CO)cc2)nc1 ) is -0.0791

# composite z-score (compound: COCCOC(=O)N1C(=O)[C@@]2(c3cc(C#CCC(C(=O)OC)C(=O)OC)ccc31)[C@H](c1ccccc1OCCO)N1[C@H](c3ccccc3)[C@H](c3ccccc3)OC(=O)[C@H]1[C@@H]2C(=O)N1CCCCCCC1 ) is -0.0742

# composite z-score (compound: O=C1c2ccccc2[C@@]2(Cc3ccccc3N(CC(F)(F)F)C2=O)[C@H](c2ccc(CO)cc2)N1C1CCCCC1 ) is -0.976

# composite z-score (compound: N#Cc1ccc(NN2C(C(O)c3ccc(I)cc3)C=CC3C(=O)N(c4ccccc4)C(=O)C32)cc1 (stereo not drawn) ) is 0.946

# composite z-score (compound: C=CC[C@]1(C(N)=O)N=C(c2ccc(OCCCO)cc2)O[C@H]1c1ccccc1CN=[N+]=[N-] ) is 1.05

# composite z-score (compound: Cc1ccc(S[C@]2(C(=O)NCCN3CCOCC3)CC(=O)N(C3Cc4ccccc4C3)[C@@H]2c2ccc(CO)cc2I)cc1 ) is 0.545

# composite z-score (compound: CO[C@H]1COC(=O)[C@H](CCSC)NC(=O)CC=C[C@@H](C)COC(=O)[C@@H](OCc2ccccc2)C=C[C@@H]1C ) is -1.35

# composite z-score (compound: C=CC[C@]1(C(=O)O)N=C(c2ccc(OCCCO)cc2)O[C@H]1c1ccccc1 ) is 0.769

# composite z-score (compound: C=CCC(OC(C)=O)[C@@H]1[C@@H](N(Cc2ccc(-c3ccccc3)cc2)C(=O)c2ccc(C)cc2)c2cc(OCCCO)ccc2N1C(=O)c1ccc(-c2ccccc2)cc1 (stereo partly drawn) ) is 0.101

# composite z-score (compound: O=C1C2C=CC(C(O)c3ccccc3)N(n3cnnc3)C2C(=O)N1Cc1ccccc1 (stereo not drawn) ) is 0.878

# composite z-score (compound: CCCNC(=O)[C@@H]1c2ccccc2C(=O)N(C2CCCCC2)[C@H]1c1ccc(CO)cc1 ) is 0.334

# composite z-score (compound: COc1cccc([C@H]2N[C@H](C(=O)O)CC[C@@H]2C)c1 ) is -0.207

# composite z-score (compound: C[C@]1(C(=O)NCc2ccccc2)c2ccccc2C(=O)N(Cc2cc(C(F)(F)F)cc(C(F)(F)F)c2)[C@H]1c1ccc(CO)cc1 ) is 0.157

---

composite z-score values by entry
Test system: Neuregulin-1 EGF-like domain
assay notes: binders of neuregulin-1 EGF-like domain, primary screen, biochemical, small-molecule microarray, 635 nm fluorescence (AID 1081);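 further: binding of the protein to compounds printed on small-molecule microarray slides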
settings: small-molecule microarray binding, higher = more signal
Respond with the number and no other words.

Solved entries (count: 5):
{"columns": ["compound", "test target", "composite z-score"],
 "data": [
  ["COc1cc([C@@H]2N[C@H](C(=O)O)Cc3c2[nH]c2ccccc32)cc(OC)c1OC", "Neuregulin-1 EGF-like domain", -0.205],
  ["O=C1O[C@H](c2ccccc2)[C@H](c2ccccc2)N2[C@H]1[C@@H](C(=O)NC[C@H](O)c1ccccc1)[C@]1(C(=O)Nc3ccc(C#CC4=CCCCC4)cc31)[C@H]2c1ccc(OCCO)cc1", "Neuregulin-1 EGF-like domain", 1.02],
  ["COc1cccc([C@@H]2[C@@H](C)CC[C@H]3C(=O)N4[C@H](c5cccc(OC)c5)[C@@H](C)CC[C@H]4C(=O)N23)c1", "Neuregulin-1 EGF-like domain", 0.285],
  ["C=CCC(OC(C)=O)[C@@H]1[C@@H](N(Cc2cccc3ccccc23)C(=O)c2ccc(C)cc2)c2cc(OCCCO)ccc2N1C(=O)c1ccc(-c2ccccc2)cc1 (stereo partly drawn)", "Neuregulin-1 EGF-like domain", -0.173],
  ["CCCN1C(=O)[C@@]2(CCS(=O)(=O)c3ccccc3)N=C(c3ccc(OCCCO)cc3)O[C@H]2c2ccccc21", "Neuregulin-1 EGF-like domain", 1.36]
]}

# composite z-score (compound: COc1cc(Cc2cc3c(c(CCc4ccccc4)n2)[Si](C(C)C)(C(C)C)OC3)cc(OC)c1OC ) is -0.233

# composite z-score (compound: Cc1ccc(S(=O)(=O)c2cc3oc2CC[C@@H](CO)NC(=O)N(C)Cc2cn(nn2)C[C@H](Cc2ccccc2)NC3=O)cc1 ) is 0.807

# composite z-score (compound: COC(=O)[C@@]1(Cc2ccc(OC)cc2)[C@H]2c3cc(C(=O)N(C)C)n(Cc4ccc(C)c(F)c4F)c3C[C@H]2CN1C(=O)c1ccccc1 ) is 0.964

---

composite z-score values by entry
test target: Calmodulin-1 (Homo sapiens) (UniProt P0DP23)
assay notes: calcium-bound CALM1 binders on microarrays, profiling panel, artefact control for SMM control-protein annotation, biochemical, small-molecule microarray, Cy5-labelled CALM1, plus calcium (AID 1112);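 further: score merges spot fluorescence with signal to noise from triplicate slides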
settings: Cy5-CALM1 binding fluorescence, higher = more signal
Respond with the number and no other words.

Solved entries (count: 3):
{"columns": ["smiles code", "recorded value"],
 "data": [
  ["C#CCCCON=C1C[C@@H](O)[C@@H](O)[C@@H]2[C@@H]3C(=O)N(Cc4ccc5c(c4)OCO5)C(=O)[C@@H]3CC[C@H]12", -0.783],
  ["Cc1ccc(S[C@]2(C(=O)NC3CC3)CC(=O)N(Cc3cc(C(F)(F)F)cc(C(F)(F)F)c3)[C@@H]2c2ccc(CO)cc2)cc1", -0.493],
  ["[N-]=[N+]=NCc1ccccc1C[C@]1(C(=O)N2CCCCC2)N=C(c2ccc(OCCCO)cc2)O[C@H]1c1ccccc1CN=[N+]=[N-]", 0.855]
]}

# composite z-score (compound: O=C1C[C@@](C(=O)NC2CC2)(c2ccc([N+](=O)[O-])cc2)[C@@H](c2ccc(CO)cc2I)N1CC12CC3CC(CC(C3)C1)C2 ) is -0.151

# composite z-score (compound: COCCCNC(=O)[C@@]1(c2ccc([N+](=O)[O-])cc2)CC(=O)N(C2CCCCC2)[C@@H]1c1ccc(CO)cc1 ) is -0.762

# composite z-score (compound: [N-]=[N+]=NCc1ccccc1C[C@@]1(C(=O)O)N=C(c2ccc(OCCCO)cc2)O[C@@H]1c1ccccc1N=[N+]=[N-] ) is -0.222

---

assay notes: small-molecule microarray binders of probe aNog, primary screen, biochemical, biotinylated probe, 635/667 nm fluorescence (AID 1115);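 further: probe is biotinylated aNog protein used at 0.15 µg/mL for 1 h at 4 C; z-score combines 667 nm fluorescence of each spot with its signal to noise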
settings: higher = more signal
measured attribute: composite z-score
Respond with the number and no other words.

{"columns": ["smiles code", "composite z-score"],
 "data": [
  ["O=C1c2ccccc2[C@](Cc2ccccc2I)(C(=O)O)[C@H](c2ccc(CO)cc2)N1C1CCCCC1", 0.213],
  ["C=C(COC)C(=O)CC[C@H](OC(=O)c1ccccc1-c1ccccc1C(=O)O)c1cccc(OCCO)c1", 0.0519]
]}

# composite z-score (molecule: C=CCNC(=O)[C@@H]1[C@H]2C(=O)O[C@H](c3ccccc3)[C@H](c3ccccc3)N2[C@H](c2ccc(OCCO)cc2)[C@@]12C(=O)N(C(=O)OCCOC)c1ccc(C#CC3(O)CCCCCC3)cc12 ) is 0.166

---

test target: Dickkopf-related protein 1 (Homo sapiens)
assay notes: DKK1 binders on small-molecule microarrays, primary screen, biochemical, small-molecule microarray, 635 nm fluorescence scan (AID 1106);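 further: score merges emission near 667 nm with signal to noise over three replicate slides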
settings: DKK1 binding, higher = more signal
composite z-score values by entry

# composite z-score (molecule: C=CCN(C(=O)C1N(c2ccc(CCO)cc2)C(=O)C2C(C(=O)O)C3C=CC21O3)C(C)(C)C (stereo not given) ) is -4.35
